Measured values drawn from patent US20170037149A1 for this set.

target_or_system: T1, human FLT3 (human, UniProt P36888 27-993)
T1 construct: On transfected CHO cells, or on the FLT3 positive human AML cell lines EOL-1 / MV4-11 where the row says so; also called hu FLT3; full length human FLT3
assay_summary: FACS, scFv on CHO-human FLT3 pre-incubated with FLT3 ligand (competitor)
Recorded median [+ligand]/median [w/o ligand]*100, one value per entry.

# binder, median [+ligand]/median [w/o ligand]*100
data = [
    ("FL-57 scFv (scFv, periplasmic prep) scFv: QVTLKESGPTLVKPTETLTLTCTFSGFSLRYARMGVSWIRQPPGKALEWLAHISSNDEKSFSTALESRLTISTDTSKSQMVLTMTNVDPVDTATYYCARMPGDSNTWRGFFDYWGQGTLVTVSSGGGGSGGGGSGGGGSEIVMTQSPGTLSLSPGERATLSCRTSQTVTNSYIAWYQQRPGQAPRLLIYGTSTRATGIPDRFSGSGSGTDFTLTISRLEPEDFAVYYCQKYGSSPLTFGGGTKLEIK", "≥ 75%"),
    ("FL-4 scFv (scFv, periplasmic prep) scFv: QVTLKESGPALVKPTETLTLTCTLSGFSLNNAKMGVSWIRQPPGKALEWLAHIFSNDEKSYSTSLKSRLTISKDTSKGQVVLTMTNMDPVDTATYYCARIVGYGSGWYGYFDYWGQGTLVTVSSGGGGSGGGGSGGGGSDIQMTQSPSSLSASVGDRVTITCRASQDIRDDLGWYQQKPGNAPKRLIYGASTLQSGVPSRFSGSGSGTEFTLTISSLQPEDFATYYCLQHNSYPLTFGGGTKVDIK", "≥ 75%"),
    ("FL-42 scFv (scFv, periplasmic prep) scFv: QVTLKESGPALVKPTETLTLTCTLSGFSLNNARMAVSWIRQPPGKCLEWLAHIFSNDEKSYSTSLKSRLTISKDTSKSQVVLTMTNMDPEDTATYYCARIVGYGTGWYGFFDYWGQGILVTVSSGGGGSGGGGSGGGGSDIQMTQSPSSLSASVGDRVTITCRASQGIRNDLAWYQQKPGKAPKRLIYAASSLQSGVPSRFSGSGSGTEFTLTISSLQPEDFATYYCLQHNSYPLTFGCGTKVEIK", "≥ 75%"),
]
